% inhibition n = 2 values, listed per item
Target: T1, full length human DLL4 (human, UniProt Q9NR61 27-685)
T1 construct: whole, on cells; also called native DLL4 expressed in HEK293 cells
T1 sequence (Q9NR61 27-685): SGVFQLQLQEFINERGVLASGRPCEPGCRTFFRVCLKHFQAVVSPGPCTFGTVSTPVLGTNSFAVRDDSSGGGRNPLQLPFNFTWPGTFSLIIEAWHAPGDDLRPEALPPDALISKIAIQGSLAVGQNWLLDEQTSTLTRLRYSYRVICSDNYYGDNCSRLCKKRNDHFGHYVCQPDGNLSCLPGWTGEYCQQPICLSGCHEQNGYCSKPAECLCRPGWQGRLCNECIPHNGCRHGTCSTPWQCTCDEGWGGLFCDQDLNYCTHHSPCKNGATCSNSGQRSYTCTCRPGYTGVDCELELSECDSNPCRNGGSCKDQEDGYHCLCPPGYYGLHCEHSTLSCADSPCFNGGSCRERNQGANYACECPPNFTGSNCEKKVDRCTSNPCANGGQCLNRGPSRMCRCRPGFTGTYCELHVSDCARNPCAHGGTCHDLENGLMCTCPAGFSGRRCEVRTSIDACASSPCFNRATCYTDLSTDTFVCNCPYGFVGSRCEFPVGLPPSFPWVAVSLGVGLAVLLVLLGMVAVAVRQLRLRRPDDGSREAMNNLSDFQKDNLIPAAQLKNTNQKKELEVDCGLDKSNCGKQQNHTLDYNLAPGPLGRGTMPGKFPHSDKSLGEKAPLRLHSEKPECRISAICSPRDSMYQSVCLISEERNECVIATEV
Test: FMAT competition, supernatant vs Alexa-647 human Notch1/Fc, 293T cells with human DLL4
The answer is to be given in %; state only the numeric part.

Given the entry 12A1 (antibody, IgG4, V domains shown, Fully human; also used where no isotype is printed) VH: QVQLVQSGAEVKRPGASVKVSCKASGYTFTSYGITWVRQAPGQGLEYMGWISTYNGNTDYAQKFQGRVTMTADISTSTAYMELRSLRSDDTAVYYCARERGSYFDYWGQGTLVTVSS VL: SYELTQPPSVSVSPGQTARITCSGDTLPKKYAYWYQQKSGQAPVLVIYEDIKRPSGIPERFSGSSSGTMATLTISGAQVEDEADYYCFSTDSGGNHKFGGGTKLTVL , report its measured % inhibition n = 2. 147

Look up % inhibition n = 2 for this binder: 3A7 (antibody, IgG4, V domains shown, Fully human; also used where no isotype is printed) VH: EVQVVESGGGLVQPGGSLRLSCEASGFTFSNYWMIWVRQAPGKGLEWVASIKEDGSEKYYVDSVKGRFTISRDNAKSSLYLQMNSLRAEDTAVYYCVRDWELRGHYYYHGMDVWGQGTTVTVSS VL: DIQMTQSPSSLSASVGDRVTITCRASLDIRNDLGWFLQKPGKAPKRLIYAASSLQSGVPSRFSGSGSGTEFTLTINSLQPEDFATYYCLQHRNYPFTFGPGTKVDFK 120

Given the entry 9G8 (antibody, IgG4, V domains shown, Fully human; used for IgG4 rows and where no isotype is printed; also called 9G8 IgG4) VH: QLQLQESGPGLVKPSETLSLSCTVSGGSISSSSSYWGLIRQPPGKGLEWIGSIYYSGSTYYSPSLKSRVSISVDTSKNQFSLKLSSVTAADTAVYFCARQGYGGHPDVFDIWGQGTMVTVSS VL: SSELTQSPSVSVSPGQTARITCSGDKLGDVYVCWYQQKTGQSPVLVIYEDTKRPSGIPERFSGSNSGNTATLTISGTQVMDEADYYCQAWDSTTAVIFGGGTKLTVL , report its measured % inhibition n = 2. 98

Entry 17F3 (antibody, IgG2, V domains shown, Fully human; also used where no isotype is printed) VH: QVQLVQSGAEVKKPGASVKVSCKASGYTFTNYGISWVRQAPGQGLEWMGWINAYNGNTNYAQNLQGRVTMTTDTSTNTAYMELRSLRSDDTAVYYCARVAPAAFFDYWDQGTLVTVSS VL: SYELTQPPSVSVSPGQTASITCSGDKLGDKYVCWYQQKPGQSPVLVIYQDNKRPSGIPERFSGSNSGNTATLIISGTQAMDEADYYCQAWDSSTVFGGGTKLTVL has what % inhibition n = 2? 108

Data request, read-out % inhibition n = 2, for 2H10 (antibody, IgG4, V domains shown, Fully human; used for IgG4 rows and where no isotype is printed; also called 2H10 IgG4) VH: QVQLVESGGGVVQPGRSLRLSCAASGFTFSRHGMHWVRQAPGKGLEWVAVVWFDGSNIYYADSVKGRFTISRDNSKNTLYLQMNSLRAEDTAMYYCARDSRIAAADYWGQGTLVTVSS VL: SYELTQPPSVSVSPGQTVSITCSGDKLGDKYVCWYQQKPGQSPVLVIYQESKRPSGIPERFSGSSSGNTATLTISGTQAMDEADYYCQTWDSSLVVFGGGTKLTVL 150
